- TARGET_OR_SYSTEM: NR1/NR2B (Homo sapiens (Human))
- Sequence (Q13224 27-1484, other chains not shown): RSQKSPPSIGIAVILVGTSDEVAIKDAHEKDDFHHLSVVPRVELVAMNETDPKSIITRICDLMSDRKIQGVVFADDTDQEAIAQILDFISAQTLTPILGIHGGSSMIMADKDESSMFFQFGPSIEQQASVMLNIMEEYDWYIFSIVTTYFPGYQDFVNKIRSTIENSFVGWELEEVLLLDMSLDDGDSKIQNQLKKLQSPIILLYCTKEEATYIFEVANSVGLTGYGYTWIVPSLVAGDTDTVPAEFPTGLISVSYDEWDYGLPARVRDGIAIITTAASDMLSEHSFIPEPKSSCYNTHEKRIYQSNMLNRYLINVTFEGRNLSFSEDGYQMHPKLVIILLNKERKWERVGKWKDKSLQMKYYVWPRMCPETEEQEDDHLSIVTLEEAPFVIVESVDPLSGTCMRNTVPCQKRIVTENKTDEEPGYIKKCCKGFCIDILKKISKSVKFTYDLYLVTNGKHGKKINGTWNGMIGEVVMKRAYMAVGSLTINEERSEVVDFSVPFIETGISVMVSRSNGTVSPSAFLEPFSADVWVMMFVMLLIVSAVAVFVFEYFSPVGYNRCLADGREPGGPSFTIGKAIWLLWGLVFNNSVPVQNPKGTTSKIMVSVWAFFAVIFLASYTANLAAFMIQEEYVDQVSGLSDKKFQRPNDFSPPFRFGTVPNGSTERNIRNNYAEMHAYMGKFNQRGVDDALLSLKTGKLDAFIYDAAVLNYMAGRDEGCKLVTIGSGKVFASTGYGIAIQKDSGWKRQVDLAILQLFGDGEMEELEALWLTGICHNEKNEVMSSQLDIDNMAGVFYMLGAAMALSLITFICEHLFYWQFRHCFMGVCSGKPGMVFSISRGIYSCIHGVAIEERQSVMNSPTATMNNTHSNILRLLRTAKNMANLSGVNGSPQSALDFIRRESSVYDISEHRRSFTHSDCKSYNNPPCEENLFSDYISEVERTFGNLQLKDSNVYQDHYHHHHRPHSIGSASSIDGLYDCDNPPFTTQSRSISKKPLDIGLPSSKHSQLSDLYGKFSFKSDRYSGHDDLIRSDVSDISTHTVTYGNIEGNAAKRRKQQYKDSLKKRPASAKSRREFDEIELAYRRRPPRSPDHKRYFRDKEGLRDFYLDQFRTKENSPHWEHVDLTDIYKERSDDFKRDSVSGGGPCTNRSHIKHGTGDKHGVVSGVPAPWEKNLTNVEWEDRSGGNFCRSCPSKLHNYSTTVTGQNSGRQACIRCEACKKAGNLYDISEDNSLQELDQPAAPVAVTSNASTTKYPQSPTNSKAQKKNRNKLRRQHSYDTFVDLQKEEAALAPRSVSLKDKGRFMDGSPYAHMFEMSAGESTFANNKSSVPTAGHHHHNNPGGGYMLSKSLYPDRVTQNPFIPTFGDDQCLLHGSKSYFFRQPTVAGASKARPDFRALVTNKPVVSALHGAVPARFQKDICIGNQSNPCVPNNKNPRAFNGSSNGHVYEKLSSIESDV
- PROTOCOL_TEXT: Cell assay: FDSS Ca2+ influx inhibition in HEK293 cells expressing NR1/NR2B;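 also: Fluo-8 Ca2+ signal read on Hamamatsu FDSS 6000 after glutamate, glycine and Ca2+ challenge following 10 min compound preincubation, end/baseline fluorescence ratio compared with MK801 control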
- TEST_PARAMETERS: read-out: NR2B NAM IC50; HEK293 cells expressing NR1/NR2B, Ca2+ influx
pIC50: −log10 of the molar value.
REPORTED_METRIC: pIC50

>>> numeric_readout("O=C(CN1C[C@@H]2C[C@@](O)(Cc3ccc(F)c(F)c3)C[C@@H]2C1)c1ccc(O)cn1 [Example 239]")
5.00
>>> numeric_readout("COC(=O)c1ccc(NC(=O)N2C[C@@H]3C[C@@](O)(c4ccccc4)C[C@@H]3C2)cc1 [Example 28]")
5.00
>>> numeric_readout("O=C(CN1C[C@@H]2C[C@@](O)(Cc3ccncc3)C[C@@H]2C1)c1ccc(O)cc1 [Example 226]")
5.41
>>> numeric_readout("COc1cccc(C[C@]2(O)C[C@H]3CN(CC(=O)c4ccc(O)cc4)C[C@H]3C2)c1 [Example 194]")
7.01
>>> numeric_readout("O=C(Nc1ccccc1)N1C[C@@H]2C[C@@](O)(c3ccccc3)C[C@@H]2C1 [Example 25]")
5.00
>>> numeric_readout("COc1ccc(-c2ccc(C(=O)CN3C[C@@H]4C[C@@](O)(Cc5ccccc5)C[C@@H]4C3)cc2)cc1 [Example 259]")
5.00
>>> numeric_readout("O=C(CN1C[C@@H]2C[C@@](F)(Cc3ccccc3)C[C@@H]2C1)c1ccc(O)cc1 [Example 312]")
7.03
>>> numeric_readout("O=C(CN1C[C@@H]2CC(O)(CCc3ccccc3)C[C@@H]2C1)c1ccc(-c2cccc(F)c2)cc1 (some centres unmarked) [Example 270]")
5.00
>>> numeric_readout("O=C(CN1C[C@@H]2C[C@@](O)(Cc3ccccc3)C[C@@H]2C1)c1ccc(-c2ccc(F)cc2)cc1 [Example 262]")
5.00
>>> numeric_readout("COc1cccc(NC(=O)N2C[C@H]3CC(Cc4ccccc4)C[C@H]3C2)c1 (some centres unmarked) [Example 294]")
5.00
>>> numeric_readout("O=C(CN1C[C@@H]2C[C@@](O)(Cc3ccc(C(F)(F)F)cc3)C[C@@H]2C1)c1ccc(O)cn1 [Example 216]")
6.10
>>> numeric_readout("O=C(CN1C[C@@H]2C[C@@](O)(CC3CC3)C[C@@H]2C1)c1ccc(O)cn1 [Example 207]")
5.00
>>> numeric_readout("O=C(CN1C[C@H]2CC(Cc3ccccc3)C[C@H]2C1)c1ccc(O)cc1 (some centres unmarked) [Example 295]")
7.29
>>> numeric_readout("O=C(CN1C[C@@H]2C[C@@](O)(Cc3ccccc3)C[C@@H]2C1)c1cccc(-c2cccnc2)c1 [Example 272]")
5.00
>>> numeric_readout("O[C@@]1(c2ccc(F)cc2)C[C@H]2CN(c3cccc(C(F)(F)F)n3)C[C@H]2C1 [Example 81]")
5.00
>>> numeric_readout("Cc1cccc(N2C[C@@H]3C[C@@](O)(c4ccccc4)C[C@@H]3C2)n1 [Example 85]")
5.00
>>> numeric_readout("Cc1cccc(N2C[C@@H]3C[C@@](O)(c4ccccc4C)C[C@@H]3C2)n1 [Example 86]")
5.00
>>> numeric_readout("Cc1ccc(NC(=O)N2C[C@H]3C[C@@H](c4ccccc4)C[C@H]3C2)c(C)c1 [Example 110]")
5.00
>>> numeric_readout("O=C(CN1C[C@@H]2C[C@@](O)(Cc3ccccc3F)C[C@@H]2C1)c1ccc(O)cn1 [Example 221]")
6.00
>>> numeric_readout("O=C(CN1C[C@@H]2C[C@@](O)(Cc3ccccc3)C[C@@H]2C1)c1ccc(=O)[nH]n1 [Example 157]")
5.00
>>> numeric_readout("O=C(CN1C[C@@H]2CN(Cc3ccccc3)C[C@@H]2C1)c1ccc(O)c(F)c1 [Example 340]")
5.00
>>> numeric_readout("CC(C)(C)c1ccc([C@]2(O)C[C@H]3CN(C(=O)Nc4cccc(C(F)(F)F)c4)C[C@H]3C2)cc1 [Example 55]")
5.00
>>> numeric_readout("Oc1ccc([C@@H](O)CN2C[C@@H]3C[C@@](O)(Cc4ccccc4)C[C@@H]3C2)nc1 [Example 1646]")
7.42
>>> numeric_readout("Cc1cccc(-c2ccc(C(=O)CN3C[C@@H]4C[C@@](O)(CCc5ccccc5)C[C@@H]4C3)cc2)c1 [Example 277]")
5.00
>>> numeric_readout("O=C(Nc1ccccc1C(F)(F)F)N1C[C@@H]2C[C@@](O)(Cc3ccccc3)C[C@@H]2C1 [Example 127]")
5.00
>>> numeric_readout("COc1ccc(C)cc1NC(=O)N1C[C@@H]2C[C@@](O)(c3ccccc3C)C[C@@H]2C1 [Example 23]")
5.00
>>> numeric_readout("COc1ncc(-c2ccc(C(=O)CN3C[C@@H]4C[C@@](O)(Cc5ccccc5)C[C@@H]4C3)cc2)cn1 [Example 279]")
5.00
>>> numeric_readout("Oc1ccc(C(O)CCN2C[C@@H]3C[C@@](O)(c4ccccc4)C[C@@H]3C2)cc1 (some centres unmarked) [Example 98]")
5.00
>>> numeric_readout("O=C(Nc1cccnc1)N1C[C@H]2C[C@@H](c3ccccc3)C[C@H]2C1 [Example 111]")
5.00
